The origin of these recorded values is paper PMC6409085.

biological target: UniProtKB V5T759; assay: biochemical; format: binding; conditions: ligand concentration 20 (unit not given), replicate column 1 of 3
Sequence (V5T759 entry or part of it): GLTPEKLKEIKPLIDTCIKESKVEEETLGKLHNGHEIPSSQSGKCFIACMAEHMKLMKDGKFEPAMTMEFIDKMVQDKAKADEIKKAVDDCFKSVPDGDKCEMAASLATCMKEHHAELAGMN
Documented Fluorescence competitive binding assay, OBP2 (raw fluorescence reading) across a set of compounds
observed-property: Fluorescence competitive binding assay, OBP2 (raw fluorescence reading)

{"columns": ["compound", "measured-value"],
 "data": [
  ["CCCCCC=O", 15466],
  ["CC(=O)c1ccccc1", 14131],
  ["O=Cc1ccccc1", 11984],
  ["CC1=CC[C@@H](C(C)(C)O)CC1", 14913],
  ["O=C(c1ccccc1)c1ccccc1", 11423],
  ["CCCCCCCC", 12132],
  ["Cc1cc(C(C)(C)C)c(O)c(C(C)(C)C)c1", 12923],
  ["CCCCCCCCCCC", 14271],
  ["CC/C=C\\CCO [(Z)-3-hexenol]", 12993],
  ["CCCCCCCCCCCCCCCCCCC", 26712],
  ["C=C1CC/C=C(\\C)CC[C@@H]2[C@@H]1CC2(C)C", 21451],
  ["C[C@@H]1CC[C@H]2C(C)(C)[C@H]3C[C@@]12CC[C@@]3(C)O", 25091]
]}
